- system: Arabidopsis thaliana HPPD (SEQ ID No. 10) (Arabidopsis thaliana)
- Construct: made in house; host or cells: E. coli K-12 BL21 (pQE30-AtHPPD)
- experimentalDetails: Spectrophotometric HPPD activity assay in presence of HPPD inhibitors
- Format: biochemical
- assayConditions: 5.0 × 10^−6M inhibitor (Table 4); read-out: percentage of inhibition
Outcome: Condition met for inhibition at 5 µM of at least 90%; Condition not met for anything lower.

CS(=O)(=O)c1cc(C(F)(F)F)ccc1C(=O)C(C#N)C(=O)C1CC1 (centres unmarked) [Diketonitrile]: Condition not met

Incoming: Tell me whether inhibition at 5 µM is at least 90% here: CS(=O)(=O)c1ccc(C(=O)C2C(=O)CCCC2=O)c(Cl)c1COCC1CCCO1 (centres unmarked) [Tefuryltrione]
Outgoing: Condition met

Incoming: Tell me whether inhibition at 5 µM is at least 90% here: CS(=O)(=O)c1ccc(C(=O)C2C(=O)CCCC2=O)c([N+](=O)[O-])c1 [Mesotrione]
Outgoing: Condition not met

Incoming: Tell me whether inhibition at 5 µM is at least 90% here: Cc1ccc(S(=O)(=O)Oc2c(C(=O)c3ccc(Cl)cc3Cl)c(C)nn2C)cc1 [Pyrazolate]
Outgoing: Condition not met

====

- system: Blepharisma japonicum HPPD (SEQ ID No. 5) (Blepharisma japonicum)
- experimentalDetails: biochemical
quantityMeasured: IC50 (µM)
Numbers only, in µM.

Consider Cc1ccc(S(=O)(=O)Oc2c(C(=O)c3ccc(Cl)cc3Cl)c(C)nn2C)cc1 [Pyrazolate] . Its measured IC50 is 20

====

- system: Arabidopsis thaliana HPPD (SEQ ID No. 10) (Arabidopsis thaliana)
- Construct: made in house; host or cells: E. coli K-12 BL21 (pQE30-AtHPPD)
- Sequence (P93836 with tags, fused parts or gaps): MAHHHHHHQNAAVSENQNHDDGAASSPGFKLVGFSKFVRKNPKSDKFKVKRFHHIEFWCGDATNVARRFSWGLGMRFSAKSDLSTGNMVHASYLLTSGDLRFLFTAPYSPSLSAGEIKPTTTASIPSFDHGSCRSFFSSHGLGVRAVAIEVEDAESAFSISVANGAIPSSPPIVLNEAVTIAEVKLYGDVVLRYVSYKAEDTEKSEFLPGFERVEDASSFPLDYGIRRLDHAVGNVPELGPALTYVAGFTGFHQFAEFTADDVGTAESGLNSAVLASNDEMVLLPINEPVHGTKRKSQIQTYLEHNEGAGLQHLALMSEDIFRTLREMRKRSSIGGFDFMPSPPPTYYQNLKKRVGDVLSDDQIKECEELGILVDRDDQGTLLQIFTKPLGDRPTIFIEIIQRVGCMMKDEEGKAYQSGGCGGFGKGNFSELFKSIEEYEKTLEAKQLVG
- experimentalDetails: Spectrophotometric HPPD activity assay in presence of HPPD inhibitors
- Format: biochemical
For each of the compounds below, state its IC50.

In the examples that follow, each entry is paired with its recorded IC50.
CS(=O)(=O)c1ccc(C(=O)C2C(=O)CCCC2=O)c(Cl)c1COCC(F)(F)F [Tembotrione]: < 2510 nM
CS(=O)(=O)c1ccc(C(=O)C2C(=O)CCCC2=O)c([N+](=O)[O-])c1 [Mesotrione]: < 2510 nM
CS(=O)(=O)c1ccc(C(=O)C2C(=O)CCCC2=O)c(Cl)c1 [Sulcotrione]: < 2510 nM

# next compound below
Entry COCCOCc1nc(C(F)(F)F)ccc1C(=O)C1=C(O)C2CCC(C2)C1=O (stereo not shown) [Bicyclopyrone] : IC50 on Arabidopsis thaliana HPPD (SEQ ID No. 10) (Arabidopsis thaliana) = 6310 nM

====

- system: Blepharisma japonicum HPPD (SEQ ID No. 5) (Blepharisma japonicum, UniProt A8R3H6)
- Sequence (A8R3H6 entry or part of it): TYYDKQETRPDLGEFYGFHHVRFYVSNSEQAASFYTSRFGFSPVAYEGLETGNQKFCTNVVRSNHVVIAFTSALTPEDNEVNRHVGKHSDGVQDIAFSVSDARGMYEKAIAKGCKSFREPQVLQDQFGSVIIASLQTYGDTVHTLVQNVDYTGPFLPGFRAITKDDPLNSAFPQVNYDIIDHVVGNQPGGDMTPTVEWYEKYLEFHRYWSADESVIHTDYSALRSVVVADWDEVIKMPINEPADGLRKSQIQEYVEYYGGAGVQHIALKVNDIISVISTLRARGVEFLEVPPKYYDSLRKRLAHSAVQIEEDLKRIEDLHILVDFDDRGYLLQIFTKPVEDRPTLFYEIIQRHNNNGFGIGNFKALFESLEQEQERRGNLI
quantityMeasured: pKi
Numbers only, as −log10 of the molar value.

Consider CS(=O)(=O)c1cc(C(F)(F)F)ccc1C(=O)C(C#N)C(=O)C1CC1 (stereo not shown) [Diketonitrile] . Its measured pKi is 5.18
